Values from patent US20240368668A1

Biological target: mouse ADAMTS7 (Mus musculus, UniProt Q68SA9)
Construct: Full-length mouse Adamts7 1-1857 (Uniprot Q68SA9, WT or E373Q catalytic mutant); expressed in transfected cells; host or cells: Human Coronary Artery Smooth Muscle Cells (HCA-SMC, Lonza), adenovirus 50 MOI
Sequence (Q68SA9 221-1657): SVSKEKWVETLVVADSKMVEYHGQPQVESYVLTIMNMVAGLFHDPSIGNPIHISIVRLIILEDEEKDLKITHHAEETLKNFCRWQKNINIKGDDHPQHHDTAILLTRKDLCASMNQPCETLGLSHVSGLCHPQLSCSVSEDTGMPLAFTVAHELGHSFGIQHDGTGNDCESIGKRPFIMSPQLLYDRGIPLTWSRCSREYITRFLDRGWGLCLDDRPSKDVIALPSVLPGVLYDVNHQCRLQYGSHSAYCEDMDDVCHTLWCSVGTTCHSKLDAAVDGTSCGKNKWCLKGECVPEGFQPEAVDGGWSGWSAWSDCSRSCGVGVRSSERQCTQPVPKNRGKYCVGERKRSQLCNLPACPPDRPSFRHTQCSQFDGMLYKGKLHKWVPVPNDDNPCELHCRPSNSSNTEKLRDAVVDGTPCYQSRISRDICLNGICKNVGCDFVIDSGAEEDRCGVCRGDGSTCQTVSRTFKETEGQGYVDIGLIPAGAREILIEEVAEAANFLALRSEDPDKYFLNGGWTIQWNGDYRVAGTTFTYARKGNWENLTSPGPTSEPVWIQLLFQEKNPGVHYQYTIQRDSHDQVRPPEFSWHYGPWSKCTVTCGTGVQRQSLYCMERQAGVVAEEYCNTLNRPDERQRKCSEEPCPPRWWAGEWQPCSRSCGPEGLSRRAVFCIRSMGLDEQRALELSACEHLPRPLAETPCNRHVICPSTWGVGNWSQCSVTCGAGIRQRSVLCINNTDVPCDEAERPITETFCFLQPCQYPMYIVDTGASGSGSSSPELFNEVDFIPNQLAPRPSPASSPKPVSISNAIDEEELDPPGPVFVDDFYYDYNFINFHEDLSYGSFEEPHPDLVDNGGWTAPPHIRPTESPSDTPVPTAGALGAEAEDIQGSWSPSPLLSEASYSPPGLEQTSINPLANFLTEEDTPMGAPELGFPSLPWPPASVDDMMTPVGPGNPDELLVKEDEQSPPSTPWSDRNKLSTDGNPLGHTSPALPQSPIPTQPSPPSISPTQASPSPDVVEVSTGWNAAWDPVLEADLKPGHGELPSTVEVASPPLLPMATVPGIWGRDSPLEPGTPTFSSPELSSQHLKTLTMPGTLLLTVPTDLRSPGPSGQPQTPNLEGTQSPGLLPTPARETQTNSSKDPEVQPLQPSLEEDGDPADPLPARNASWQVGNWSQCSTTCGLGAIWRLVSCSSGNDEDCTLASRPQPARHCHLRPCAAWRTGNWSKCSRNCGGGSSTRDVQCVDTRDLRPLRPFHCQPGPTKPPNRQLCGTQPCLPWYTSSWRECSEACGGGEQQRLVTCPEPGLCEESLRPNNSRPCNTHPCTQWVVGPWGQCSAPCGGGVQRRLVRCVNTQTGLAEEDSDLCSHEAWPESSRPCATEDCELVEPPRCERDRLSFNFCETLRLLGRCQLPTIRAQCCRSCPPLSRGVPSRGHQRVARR
Assay: TMT10 TAILS N-terminomics, SMC2 experiment (process replicates, trypsin/AspN digest)
Format: cell-based
Details: SMC2_TAILS HC; log fold change of N-terminal peptide, Ad-mADAMTS7 WT over Luc
Label t when logFC.mWT.over.Luc < 3; otherwise f.

Substance	Assayed Target	Discrete Label
LOXL1_218 (AVASAGVIYPYQPR; listed as Homo sapiens)	mouse ADAMTS7 (Mus musculus, UniProt Q68SA9)	t
NBEA_1892 (LEKVAPLLR; listed as Homo sapiens)	mouse ADAMTS7 (Mus musculus, UniProt Q68SA9)	t
SPOCK1_27 (LAGGAGPNHGNFL; listed as Homo sapiens)	mouse ADAMTS7 (Mus musculus, UniProt Q68SA9)	t
TRGC2_86 (HRCIVRHENNK; listed as Homo sapiens)	mouse ADAMTS7 (Mus musculus, UniProt Q68SA9)	f
LOXL2_37 (FQQPAPEYHQPQAPANVAKIQLR; listed as Homo sapiens)	mouse ADAMTS7 (Mus musculus, UniProt Q68SA9)	f
